# Tested on: PPARg:RXRa 90nM:30nM, anti-RXR (NR concentration 90 nM, RXRa partner concentration 30 nM)
# protocol-notes: PBM binding z-score (relative to random genomic background probes); higher = stronger binding; sequences stand for … in GC…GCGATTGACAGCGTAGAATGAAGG
Assign PBM binding z-score to each entry below.
Output: the number by itself.

Please tell me the measured PBM binding z-score for `CGTCAAAGTGCAAGGTAACGTAACAGAAAGCAGC` ; system: PPARg:RXRa 90nM:30nM, anti-RXR (NR concentration 90 nM, RXRa partner concentration 30 nM). 0.326

Tell me PBM binding z-score of `CGTCCAAGGTCAAGGCCAGTGAAAGAGACTCGAA` when tested on PPARg:RXRa 90nM:30nM, anti-RXR (NR concentration 90 nM, RXRa partner concentration 30 nM). 3.69

// output PBM binding z-score; input `GGTAGCAGGCCATTTGGGTCACTCAATGACGGGC` ; system PPARg:RXRa 90nM:30nM, anti-RXR (NR concentration 90 nM, RXRa partner concentration 30 nM) 0.275

Give PPARg:RXRa 90nM:30nM, anti-RXR (NR concentration 90 nM, RXRa partner concentration 30 nM) PBM binding z-score for the following sequence: `ATCGAAAGGTCGACGAGCTGAGTATACACCGTTT` 1.72

Identify measured PBM binding z-score obtained with PPARg:RXRa 90nM:30nM, anti-RXR (NR concentration 90 nM, RXRa partner concentration 30 nM) for `GCGACTGGGGCAATGCAGGTTACCATAAGGTTGG` . 0.69

State recorded PBM binding z-score with PPARg:RXRa 90nM:30nM, anti-RXR (NR concentration 90 nM, RXRa partner concentration 30 nM), entry `CTACGAAGGTGAACAAGGTCGTTGATTACTATTC` , no comment. 0.552

====

So I've got a bunch of sequences here, and I need their PBM binding z-score values.
# Tested on: RARa:RXR (NR concentration 270 nM, RXRa partner concentration 90 nM)
# protocol-notes: PBM binding z-score (relative to random genomic background probes); higher = stronger binding; sequences stand for … in GC…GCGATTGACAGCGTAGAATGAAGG

Give me measured PBM binding z-score, please, for this sequence: `TGAATGAGGTTCAAGATCAGGGAACGTGGCGTCG` 0.775

Supply PBM binding z-score value. Item: `TCATATAGGTAAAGGCTAGGTGAAAGTCCGATCT` 1.09

Could you please provide reported PBM binding z-score for `CCAGTCAGGTGAAAGGTAACTCAGTCTGGTACGC` ? Thanks! 1.58

Quick one: give measured PBM binding z-score for `CCAGACAGGTGAAAGGTAGCTCAGTCTGGTACGC` 0.905

Output PBM binding z-score of `ATCTCTAGATAACCAAGTTCAGTGAATGCCGAAC` 0.424

For the sequence `CCAGACAGGTGAAAGGTAACTCGGTCTGGTACGC` , give its reported PBM binding z-score. 1.77

====

Would you kindly list PBM binding z-score for each of these sequences?
# System: PXR homodimer (NR concentration 270 nM)
# protocol-notes: PBM binding z-score (relative to random genomic background probes); higher = stronger binding; sequences stand for … in GC…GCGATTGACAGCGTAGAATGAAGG
Please respond with just the number, no unit label.

Output PBM binding z-score of `CCTCGGAGGACAACAGGAGGTCAGCGCTGCCAGA` 0.451

Return value of PBM binding z-score for input `TTACCAAGGTGAAGGTCGTTGAGCCCTCTGTAGA` , no commentary. -0.0928

Consider the sequence `AGAAGGAGGTTATACGTAGATCAGGGAAGAAAGT` and give its recorded PBM binding z-score. 1.06

Read off the recorded PBM binding z-score for `TCTCGGAGGACACGAAGGTCAGTGCTTTCCAGAG` 0.566

Name the recorded PBM binding z-score of the sequence listed here: `TCGAGTAGGTTACCAATGGTGCATTCAGCTTTCT` -0.657

Answer with reported PBM binding z-score of `CCTATTAGTTGACCACAAGGGCAACCGAAGCTCG` 1

Please report the measured PBM binding z-score for `TCTATTAGTTGAAGGGAAACCGACGAGTCCGTTT` 0.678

Give the reported PBM binding z-score for this sequence. `CTTAGCAGGCCAGGGTCACTCAAGCATTTCGCTT` -0.227

Retrieve PBM binding z-score measured for `TCCTATAGGTAAAGGTGAAAGTCGAACGATATGA` and print it. -0.316

Quickly give me recorded PBM binding z-score for `GCTATCAGGCCATTTGGGTCACTCAATGACGGGC` 0.354

Give PBM binding z-score for the following sequence: `ATCTCTAGCTAACCAAGTTCAGTGAATGCCGAAC` 1.49

Return the recorded PBM binding z-score value; entry: `TCATATAGGTAATACAGGTGAAAGCCGGCATCTA` 0.433

Input `CCTAGTTGGTCAAGGTCACACGCGCTATAGGTAC` , output reported PBM binding z-score. 2.6

Determine from records and report PBM binding z-score for `CAAACTAGGTCACGGAAGGTCAAAGTCGAATGAC` 2.28

Determine its reported PBM binding z-score: `GCTATTAGTAGAAAGGGCAACCGAATGATTCTCG` -0.0739

Quick one: give measured PBM binding z-score for `ATATGTAGATTATCGGGTCATTCAGTTTGCGCAT` 6.51

Indicate its recorded PBM binding z-score; the sequence in question is `CCGAGTAGGTTATGGGGCAGTCAGGCAACGGTGA` 0.274

Quickly give me recorded PBM binding z-score for `GCCACTGGGGCAAAGCAGGTTACCATAAGGTTGG` -0.707

Let me know recorded PBM binding z-score for `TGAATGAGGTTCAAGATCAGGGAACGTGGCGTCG` , thanks. -0.309

Hello, please tell me recorded PBM binding z-score for this one: `TCATATAGGTATAGGTGAAAGTCGAACGATATGA` 0.0974

Supply measured PBM binding z-score of `AGAACGAGGGCTATGAGTTGATAGCACGGGTGGC` in your reply. 0.0434

Provide measured PBM binding z-score value, entry: `CAAACTAGGTCAAGGTCAAAGTGGGTTTGTGCCA` 2.52

# return recorded PBM binding z-score for entry `ATCGAAATGTCGACGAGGTGAGTATACACCGTTT` 0.0399

Report PBM binding z-score for `CGTCAAAGTTCAAGGTAACGTTACAGAAAGCAGC` 3.12

Provide one value: measured PBM binding z-score of `CTACCCAGGTGAACAAGGTCGTTGATTACTATTC` 0.96

Return PBM binding z-score for the following sequence: `AGAACGAGGGTAATGAGTTGATAGCACGGGTGGC` 1.17

State, in one line, measured PBM binding z-score of `TATACAGGGTCAAAGGCCAGAGTGCGAATGTCGA` 1.14

Given `TATACAGGGTCAAAGGCCAGAATACGAATGTCGA` , respond with its PBM binding z-score. 0.553

Indicate the recorded PBM binding z-score value for this sequence: `GCGACTGGGGCAAAGCAGATTACCATAAGGTTGG` -0.273

// fetch PBM binding z-score given entry `ATCTCTAGGTAAAGTTCAATGAAAGATCGATAGA` 2.63

// fetch PBM binding z-score given entry `CAAACTAGGTCACAGAGGTCCAAGTCCGTGCGTA` 0.225

Name the recorded PBM binding z-score of the item `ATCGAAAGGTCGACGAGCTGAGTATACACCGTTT` in your answer. -0.245

Quick one: give measured PBM binding z-score for `AGAAAGAGGTTATTAAGATCAGGGAATTGCGGTC` 0.96

Fill in PBM binding z-score for record `ATATGTAGGTTATCGGGTCACTCAGTTTGCGCAT` 4.7

Indicate the recorded PBM binding z-score value for this sequence: `TAGCATAGGTCATTGGGCCAGTATAGTACGCATC` -0.00464

Could you please provide reported PBM binding z-score for `TCATATAGGTAATACAGCTGAAAGTCGGCATCTA` ? Thanks! -0.0774

Let me know recorded PBM binding z-score for `CTACTAAGGTGAACAAGGTCGTTGATTACTATTC` , thanks. 2.35

Answer with reported PBM binding z-score of `CCGACTGGGGCATAAGGTTAGCATAAGCCAGCCC` -0.542

For the sequence `AGAATGAGATTAAGATCAGGGAAACAGAATACAT` , give its reported PBM binding z-score. 0.121

Respond only with PBM binding z-score recorded for `TCTTGGAGATCAACAGGAGGTTAAGAAAGATCGA` -0.208

Fill in PBM binding z-score for record `CCGACTGGGCCAAAGGTCATTGATTCCAATGCTC` 1.79

Indicate the recorded PBM binding z-score value for this sequence: `ATATGTAGGTTAAGGGTCTTTCAGGTTGGTTCGC` 1.1

Please report the measured PBM binding z-score for `ATCTCTAGGTAAGACTCAGTTCCGTGAAGAACGC` 0.39

Supply PBM binding z-score value. Item: `ATATGTAGGTTATCGGTTCATTCAGTTTGCGCAT` 11.4

Determine from records and report PBM binding z-score for `AGAATGAGCTTATACGTAGATCAGGGAAGAAAGT` -0.186

Dear colleague, please send me the reported PBM binding z-score for `TCATATAGGTAAAAGGTGAAAGTGGGTGTGGTAA` when you can. 1.28

// Input: `ACTATTTGGTCAGCTGAGGTCACACACAATTCGG` . Output its PBM binding z-score only. 1.97

Give me measured PBM binding z-score, please, for this sequence: `ACTAGCAGGCCAAGATTGGGTCACTCAAACAAAG` -0.441

Give recorded PBM binding z-score. `TCTGGTAGATCAAAGGTTAAGAAAGCCGAAGCCT` 0.168

Hello, please tell me recorded PBM binding z-score for this one: `TAGCCTAGGGCATGCGGGCCAGTATAGTGTCGGC` -0.955

Return PBM binding z-score for the following sequence: `CCGACTGGGGGATAAGGTTACCATAAGCCAGCCC` -0.306
